System: MALME-3M melanoma
Assay: NCI-60 one-dose screen, 48 h (100 = growth as untreated, 0 = no growth, -100 = all killed)
Details: 10 µM unless noted
This is part of a sample that, as a whole, favours compounds with a hit. Of some 83,000 tested, about 20% had one in any assay.
READOUT KIND: growth (%)
Please give a number only; it is taken to be in %.

Ask: Please report the recorded growth for `CCc1c(C)c2ccc(OCC(=O)N=Nc3c(O)[nH]c4ccccc34)c(C)c2oc1=O` .
Result: 42.5

Ask: Same question, `CCCCCCCCCCCCc1ccc([N+](CC)(CC)CC)cc1` this time
Result: -11.1

Ask: Same question, `COc1ccc(C(=O)NCCNc2nccc(-c3c(-c4ccc(F)cc4)nc4sccn34)n2)cc1` this time
Result: 76

Ask: Same question, `COC1=C(OC)C(=O)c2ccccc2C1=O` this time
Result: 126

Ask: Same question, CC(C)(C)C(=O)OCOP(=O)(OCOC(=O)C(C)(C)C)C1CC(O)N(O)C1=O (stereo not given) this time
Result: 41.2

----------
Tested on: SNB-75 CNS
Assay: NCI-60 one-dose screen, 48 h
Settings: 10 µM unless noted
Compounds without any hit were thinned out: in the full panel of roughly 83,000, 20% have a hit. Active and inactive are the calls of the source. Rule for the calls: active = growth percent below 10; inactive = the rest.
Field 'call' accepts active, inactive

Ask: Would you mind telling me which call this test gave `COC(=O)c1ccc2[nH]c(O)c(C(=Nc3ccc(N(C)C(=O)CN4CCN(C)CC4)cc3)c3ccc(OC)cc3)c2c1` ?
Result: active

Ask: Same question, `O=C1C(Cl)=C(Nc2ccc(Nc3ccccc3)c(NC3=C(Cl)C(=O)c4ccccc4C3=O)c2)C(=O)c2ccccc21` this time
Result: inactive

Ask: Same question, `COC(=O)[C@H](Cc1cn(C)cn1)NC(=O)[C@H](CC(=O)OCc1ccccc1)NC(=O)Nc1cc(C(F)(F)F)cc(C(F)(F)F)c1` this time
Result: active

Ask: Same question, `Cc1cc(CSc2ccc(Cl)cc2)ccc1N` this time
Result: inactive

Ask: Same question, `CCCCCCCCCCCCCCCCCC1=NCCN1CS(=O)(=O)O` this time
Result: inactive

Ask: Same question, `CCCCCSc1ccc2nc(NC(=O)OCCC)sc2c1` this time
Result: inactive

Ask: Same question, `COc1ccc2nc3cc(Cl)ccc3c(NCCCNC(C)=O)c2c1` this time
Result: inactive

Ask: Same question, `Oc1ccccc1\C=N/N=C/C=C/c1ccccc1` this time
Result: inactive

Ask: Same question, Cc1ccc2c(O)c(O)cc(NC(C)CCCN)c2n1 (stereo not drawn) this time
Result: inactive

Ask: Same question, `Cc1c(CN(C)C)cc(C(C)C)cc1C(C)C` this time
Result: inactive

Ask: Same question, `CC[N+](C)(C)N` this time
Result: inactive

Ask: Same question, `O=C(Nc1ccc(-n2cc(-c3ccncc3)c(-c3ccc(Cl)c(O)c3)n2)cc1)c1cc(Cl)cc(Cl)c1` this time
Result: inactive

Ask: Same question, `O=C(CCl)NC1c2ccccc2Oc2ccccc21` this time
Result: inactive

Ask: Same question, CC(O)c1cc[cH-]c1.[Fe+2].c1cc[cH-]c1 (stereo not drawn) this time
Result: inactive

Ask: Same question, `CC(C)OC(=O)c1ccc2n1CCCc1cnc(Nc3ccccc3)nc1-2` this time
Result: inactive

Ask: Same question, `COc1ccc(Nc2c3ccccc3nc3ccccc23)cc1` this time
Result: inactive

Ask: Same question, `CCCCCCC(=O)C(C)C` this time
Result: inactive

Ask: Same question, `O=C1c2cc([N+](=O)[O-])ccc2-c2cc(Cl)c(NC(=O)C(F)(F)F)cc21` this time
Result: inactive

Ask: Same question, `CC1=NN(c2cccc(Cl)c2)C(=O)/C1=C\c1cn(-c2nc(N3CCOCC3)nc(N3CCOCC3)n2)c2ccccc12` this time
Result: inactive

Ask: Same question, `CC(=O)Nc1ccc(S(=O)(=O)Cl)cc1` this time
Result: inactive

Ask: Same question, `CCC(C)(C)c1ccc(OCCCCCCN2CCNCC2)cc1` this time
Result: inactive

Ask: Same question, `NC(=O)c1c(Nc2ccccc2)nn2cc(-c3nc4ccccc4s3)c(N)nc12` this time
Result: inactive

Ask: Same question, COC(=O)/C=C1/CCCCC1(C)C(=O)OC (stereo not drawn) this time
Result: inactive

----------
System: K-562 leukemia
Experiment: NCI-60 one-dose screen, 48 h
Details: 10 µM unless noted
Procedure: Cells are grown in 96 well plates and exposed to the test compound for 48 hours. Compounds are tested at a single concentration, which is 10^-5 M for most compounds. The reported endpoint is percent growth (GI% or GIPRCNT), where numbers from 0 - 100% represent growth inhibition, and numbers from -100% - 0 represent cell death. For example, a value of 40 represents 60% growth inhibition. A value of 0 means no net growth occurred over the course of the experiment. […]
The panel holds about 83,000 compounds, 20% with a hit somewhere; the sample as a whole holds those more often. Calls of active or inactive are those of the source. The calls were made as follows: active = growth percent below 10; inactive = the rest.
Field 'call' accepts t (active), f (inactive)

Ask: Would you mind telling me which call this test gave CCCCCCCCCCN1CC2CCCCC2C1 (stereo unspecified) ?
Result: f

Ask: Same question, `COc1cc(-c2nn(-c3ccc(NC(=O)c4ccc(Cl)c(C(F)(F)F)c4)cc3)cc2-c2ccncc2)ccc1Cl` this time
Result: t

Ask: Same question, `COc1ccc(-c2cc(C#N)c(NNC(C)=O)[nH]2)cc1` this time
Result: f

Ask: Same question, `Oc1ccccc1/C=N/N=C\c1ccccc1Cl` this time
Result: f

Ask: Same question, `O=C(/C=C1\C(=O)N(Cc2ccccc2)c2ccccc21)c1ccc(OCCN2CCCCC2)cc1` this time
Result: t

Ask: Same question, `C/C(=N\Nc1ccc(Cl)cn1)c1ccc2ccccc2n1` this time
Result: t

Ask: Same question, `COc1ccc(CN2C(=O)/C(=C\C(=O)c3ccc(OCCN4CCCC4)cc3)c3ccccc32)cc1` this time
Result: t

Ask: Same question, `COc1cc(-c2nn(-c3ccc(NC(=O)c4cc(Cl)cc(Cl)c4)cc3)cc2-c2ccncc2)ccc1Cl` this time
Result: f

Ask: Same question, `N=C(N)N=Nc1ccc(NN=C(N)N)c2ccccc12` this time
Result: f

Ask: Same question, `CCCCCCCCC(=O)Nc1ccc(O)cc1` this time
Result: f

Ask: Same question, `COc1cccc(Cn2cc3c(c2)-c2oncc2CC3)c1` this time
Result: f

----------
Tested on: PC-3 prostate
Assay: NCI-60 one-dose screen, 48 h (100 = growth as untreated, 0 = no growth, -100 = all killed)
Conditions: 10 µM unless noted
This is part of a sample that, as a whole, favours compounds with a hit. Of some 83,000 tested, about 20% had one in any assay.
Parameter threshold = 30%. Response is class 1 when growth meets or exceeds it, else class 0.

Ask: Assess whether reported growth for `CN(C)CCOC(=O)C(C)(C)C` sits at 30% or higher.
Result: class 1

Ask: Same question, `Oc1ccccc1\C=N/N=C/C=C/c1ccccc1` this time
Result: class 1

Ask: Same question, `C/C(=C\c1ccc2ccccc2c1)[N+](=O)[O-]` this time
Result: class 0

Ask: Same question, `C/C(=N\Nc1ccc(Cl)cn1)c1ccccn1` this time
Result: class 0

Ask: Same question, Nc1nc2c(c3cnccc13)C(c1cccc(Br)c1)Cc1cnccc1-2 (stereo unspecified) this time
Result: class 0

Ask: Same question, `Cc1nc2c(nnn2-c2ccccc2)c2nc(-c3ccccc3)oc(=O)c12` this time
Result: class 1

----------
Test system: SK-MEL-5 melanoma
Test: NCI-60 one-dose screen, 48 h (100 = growth as untreated, 0 = no growth, -100 = all killed)
Conditions: 10 µM unless noted
About 83,000 compounds went through this panel and 20% of them were active in at least one assay; those are over-represented in the sample as a whole.
READOUT KIND: growth (%)
Please give a number only; it is taken to be in %.

Ask: Please report the recorded growth for CC(=O)OCC1O[C@@H](OC(C)=O)[C@@H](NC(=O)NS(=O)(=O)c2ccccc2)C(OC(C)=O)[C@@H]1OC(C)=O (some centres undefined) .
Result: 102

Ask: Same question, `Cc1cc2c(-c3nc4ccccc4n3C)c(O)c(O)cc2c(O)c1-c1c(C)cc2c(-c3nc4ccccc4n3C)c(O)c(O)cc2c1O` this time
Result: 91.3

Ask: Same question, `O=C(/C=C\c1ccccc1Cl)c1ccccc1` this time
Result: 92.2

Ask: Same question, `CCOc1ccc(Br)cc1/C=C(\C#N)c1ccc([N+](=O)[O-])cc1` this time
Result: 81.8

Ask: Same question, `c1ccc(-c2cn3ccnc3c(-c3ccc4ncn(C5CCCCC5)c4c3)n2)cc1` this time
Result: 63.5

Ask: Same question, `CC(=O)OCC(=O)[C@@]1(O)[C@H](C)C[C@H]2[C@@H]3C=C(C)C4=Cc5c(cnn5-c5ccc(F)cc5)C[C@]4(C)[C@H]3[C@@H](O)C[C@@]21C` this time
Result: -47.3

Ask: Same question, `C[C@@H](c1ccc2c(c1)[nH]c1ccc(Cl)cc12)c1nc2ccccc2[nH]1` this time
Result: 95.3

Ask: Same question, `Br/C(=N\Nc1nn[nH]n1)c1ccccc1` this time
Result: 102

Ask: Same question, `C=C(NC(=O)[C@H](C(C)C)N(C)c1cccc2[nH]ccc12)C(=O)OC` this time
Result: 99.4
